# ASSAY PROCEDURE: Half life in pH 7.4 buffer at 37 degC in presence of 8 mM DTT
# Assay type: physicochemical
# RECORDED CONDITIONS: pH 7.4 buffer with 8 mM DTT
PROPERTY LABEL: half-life (min)
# unit: min | format: bare number

*Q* Return value of half-life for input CC[C@]1(O)C[C@H]2CN(CCc3c([nH]c4ccccc34)[C@@](C(=O)OC)(c3cc4c(cc3OC)N(C)[C@H]3[C@@](O)(C(=O)NNC(=O)OC(C)C(C)SSC[C@H](NC(=O)[C@H](CC(=O)O)NC(=O)[C@H](CC(=O)O)NC(=O)[C@H](CCCNC(=N)N)NC(=O)[C@H](CC(=O)O)NC(=O)CC[C@H](NC(=O)c5ccc(NCc6cnc7nc(N)[nH]c(=O)c7n6)cc5)C(=O)O)C(=O)O)[C@H](O)[C@]5(CC)C=CCN6CC[C@]43[C@@H]65)C2)C1 (some centres undefined) , no commentary.
*A* 30

*Q* Name the recorded half-life of the molecule listed here: CC[C@]1(O)C[C@H]2CN(CCc3c([nH]c4ccccc34)[C@@](C(=O)OC)(c3cc4c(cc3OC)N(C)[C@H]3[C@@](O)(C(=O)NNC(=O)OCCSSC(C)(C)[C@H](NC(=O)[C@H](CC(=O)O)NC(=O)[C@H](CC(=O)O)NC(=O)[C@H](CCCNC(=N)N)NC(=O)[C@H](CC(=O)O)NC(=O)CC[C@H](NC(=O)c5ccc(NCc6cnc7nc(N)[nH]c(=O)c7n6)cc5)C(=O)O)C(=O)O)[C@H](O)[C@]5(CC)C=CCN6CC[C@]43[C@@H]65)C2)C1
*A* 60
